From: the MegaScale stability set (Tsuboyama et al. 2023)

B1: EHEE_rd2_1257 (parent)
chain: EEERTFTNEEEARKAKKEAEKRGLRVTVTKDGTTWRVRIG

Variants of: B1
PROTOCOL_NOTES: folding stability dG (cDNA display proteolysis); higher = more stable
CONDITIONS_USED: PBS, room temperature
Is folding stability dG at least 1 kcal/mol? Then true. If not, false.

Would you please look over these solved cases?
- MUTATION_ID: "G23K"
  CLASS_NAME: "false"
- MUTATION_ID: "E18T"
  CLASS_NAME: "true"
- MUTATION_ID: "R22S"
  CLASS_NAME: "true"
- MUTATION_ID: "R25D"
  CLASS_NAME: "true"
- MUTATION_ID: "A15G"
  CLASS_NAME: "false"
- MUTATION_ID: "R4W"
  CLASS_NAME: "true"
- MUTATION_ID: "K30N"
  CLASS_NAME: "true"
- MUTATION_ID: "A15Q"
  CLASS_NAME: "false"

Now take the following variant into account.
Query block: Does the reported folding stability dG for `A15T` fall at or above the 1 kcal/mol mark?
Result block: true
